IC50 values for the compounds below.
# measured-on: human TLR9 (Homo sapiens (Human))
# Sequence (Q9NR96 26-1032): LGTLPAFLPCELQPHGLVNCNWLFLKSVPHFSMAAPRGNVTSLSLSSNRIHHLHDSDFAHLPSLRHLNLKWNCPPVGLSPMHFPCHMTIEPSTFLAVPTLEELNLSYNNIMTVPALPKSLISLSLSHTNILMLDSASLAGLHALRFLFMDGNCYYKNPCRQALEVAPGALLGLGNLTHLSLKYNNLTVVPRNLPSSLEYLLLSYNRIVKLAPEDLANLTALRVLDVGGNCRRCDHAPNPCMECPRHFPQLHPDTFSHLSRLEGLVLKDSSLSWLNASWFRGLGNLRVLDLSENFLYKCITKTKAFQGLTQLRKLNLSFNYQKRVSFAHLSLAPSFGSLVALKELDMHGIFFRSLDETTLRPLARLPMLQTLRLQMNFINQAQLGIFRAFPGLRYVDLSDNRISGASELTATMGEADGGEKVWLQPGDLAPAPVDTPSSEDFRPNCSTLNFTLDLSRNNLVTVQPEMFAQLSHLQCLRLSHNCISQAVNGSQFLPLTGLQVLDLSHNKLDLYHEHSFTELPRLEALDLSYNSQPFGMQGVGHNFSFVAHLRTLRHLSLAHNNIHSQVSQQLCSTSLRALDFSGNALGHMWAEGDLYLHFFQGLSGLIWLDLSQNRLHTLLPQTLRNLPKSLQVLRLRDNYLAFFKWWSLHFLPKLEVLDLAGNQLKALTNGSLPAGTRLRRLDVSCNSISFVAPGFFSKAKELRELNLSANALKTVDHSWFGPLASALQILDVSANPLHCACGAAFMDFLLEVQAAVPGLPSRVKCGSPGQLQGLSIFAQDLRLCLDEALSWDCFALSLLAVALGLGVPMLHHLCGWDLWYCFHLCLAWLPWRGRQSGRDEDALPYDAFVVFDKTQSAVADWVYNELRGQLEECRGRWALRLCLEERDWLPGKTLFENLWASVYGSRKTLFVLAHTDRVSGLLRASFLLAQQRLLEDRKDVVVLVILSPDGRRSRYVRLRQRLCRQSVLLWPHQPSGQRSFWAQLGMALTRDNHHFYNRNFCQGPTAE
# assay-info: TLR9 inhibition reporter assay (HEK-Blue cells, SEAP reporter, ODN2006 stimulation)
# experimental-parameters: read-out: TLR9 IC50, HEK-Blue cells overexpressing human TLR9, ODN2006 5 nM
Enter your answer as a number in nM; do not include the unit.

{"columns": ["compound", "measured-on", "result-units", "IC50"],
 "data": [
  ["Cc1cc(-c2[nH]c3ccc(C4CCN(CC5CCNC5)CC4)cc3c2C(C)C)cc(C)n1 (stereo not shown)", "human TLR9 (Homo sapiens (Human))", "nM", 273],
  ["Cc1cc(-c2[nH]c3ccc(C4CCN(Cc5ccn[nH]5)CC4)cc3c2C(C)C)c(F)cn1", "human TLR9 (Homo sapiens (Human))", "nM", 2720],
  ["Cc1cc(-c2[nH]c3ccc(C4CCN(C(=O)CN(C)C)CC4)cc3c2C(C)C)c(F)cn1", "human TLR9 (Homo sapiens (Human))", "nM", 3040]
]}

IC50 recorded for this compound, Cc1cc(-c2[nH]c3ccc(C4CCN(CC(=O)NC5CCCOC5)CC4)cc3c2C(C)C)cc(C)n1 (stereo not shown) , is 512

* * *

# measured-on: human TLR9 (Homo sapiens (Human))
# assay-info: TLR9 inhibition reporter assay (HEK-Blue cells, SEAP reporter, ODN2006 stimulation);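 note: compounds tested over 0.05 nM to 50 µM, 22 h incubation, inhibition taken as SEAP signal drop from agonist plus DMSO wells toward a known inhibitor control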
# experimental-parameters: read-out: TLR9 IC50, HEK-Blue cells overexpressing human TLR9, ODN2006 5 nM
measurement-label: pIC50
Answer as the number alone; pIC50 is minus log10 of concentration in mol/L.

Some solved cases for reference:
{"columns": ["molecule", "measured-on", "pIC50"],
 "data": [
  ["Cc1cc(-c2[nH]c3ccc(C4CCN(CC(=O)NC5(C)CC5)CC4)cc3c2C(C)C)cc(C)n1 [Example 251]", "human TLR9 (Homo sapiens (Human))", 6.09],
  ["Cc1cc(-c2[nH]c3ccc(C4CCN(CC(=O)NCCO)CC4)cc3c2C(C)C)cc(C)n1 [Example 222]", "human TLR9 (Homo sapiens (Human))", 5.65],
  ["Cc1cc(-c2[nH]c3ccc(C4CCN(C(=O)CNC56CC7CC(CC(O)(C7)C5)C6)CC4)cc3c2C(C)C)cc(C)n1 [Example 343]", "human TLR9 (Homo sapiens (Human))", 6.16],
  ["Cc1cc(-c2[nH]c3ccc(C4CCN(C(=O)CN5CCC[C@H]5CO)CC4)cc3c2C(C)C)cc(C)n1 [Example 381]", "human TLR9 (Homo sapiens (Human))", 6.46],
  ["Cc1cc(-c2[nH]c3ccc(C4CCN(C(=O)C5CCN(Cc6ccccc6)CC5)CC4)cc3c2C(C)C)ccn1 [Example 567]", "human TLR9 (Homo sapiens (Human))", 6.06]
]}

Field pIC50 (entry COc1ncc(CN(C)CC(=O)N2CCC(c3ccc4[nH]c(-c5cc(C)nc(C)c5)c(C(C)C)c4c3)CC2)cn1 [Example 418] ) reads 5.69

* * *

# measured-on: human TLR7 (Homo sapiens (Human))
# Sequence (Q9NYK1 27-1049): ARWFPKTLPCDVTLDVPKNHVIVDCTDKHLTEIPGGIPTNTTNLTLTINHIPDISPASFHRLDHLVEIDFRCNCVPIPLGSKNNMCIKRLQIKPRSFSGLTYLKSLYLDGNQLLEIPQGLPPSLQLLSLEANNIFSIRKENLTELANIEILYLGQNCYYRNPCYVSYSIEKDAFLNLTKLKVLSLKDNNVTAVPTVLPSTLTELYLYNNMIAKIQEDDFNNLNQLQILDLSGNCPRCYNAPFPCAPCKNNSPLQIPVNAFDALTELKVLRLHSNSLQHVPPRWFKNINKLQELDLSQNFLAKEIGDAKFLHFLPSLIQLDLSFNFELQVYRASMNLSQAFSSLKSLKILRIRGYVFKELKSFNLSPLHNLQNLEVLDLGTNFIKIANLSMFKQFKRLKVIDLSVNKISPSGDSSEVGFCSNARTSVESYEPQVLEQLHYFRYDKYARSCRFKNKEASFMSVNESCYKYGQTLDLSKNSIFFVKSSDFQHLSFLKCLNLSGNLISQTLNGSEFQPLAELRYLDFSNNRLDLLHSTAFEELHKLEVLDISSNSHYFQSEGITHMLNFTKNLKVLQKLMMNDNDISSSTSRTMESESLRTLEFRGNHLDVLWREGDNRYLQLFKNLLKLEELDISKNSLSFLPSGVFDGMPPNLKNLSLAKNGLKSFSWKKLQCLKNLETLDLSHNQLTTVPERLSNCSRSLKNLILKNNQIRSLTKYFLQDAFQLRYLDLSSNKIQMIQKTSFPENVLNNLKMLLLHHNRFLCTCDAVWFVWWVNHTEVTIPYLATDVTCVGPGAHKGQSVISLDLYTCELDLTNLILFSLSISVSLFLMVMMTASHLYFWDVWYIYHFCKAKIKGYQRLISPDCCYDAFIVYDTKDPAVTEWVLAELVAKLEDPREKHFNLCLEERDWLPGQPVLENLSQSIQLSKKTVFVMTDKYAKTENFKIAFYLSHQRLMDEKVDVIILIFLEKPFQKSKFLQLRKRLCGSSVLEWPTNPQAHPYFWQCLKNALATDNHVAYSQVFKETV
# assay-info: TLR7 inhibition reporter assay (HEK-Blue cells, SEAP reporter, gardiquimod stimulation)
# Format: cell-based
# experimental-parameters: HEK-Blue cells, gardiquimod 7.5 μM
Parameter IC50: see the listing below.
Answer shape: numeric part, then the unit.

{"columns": ["compound", "IC50"],
 "data": [
  ["CCc1c(-c2ccnc(C)c2)[nH]c2ccc(C3CCN(C(=O)NC4CCN(C(=O)C(F)(F)F)CC4)CC3)cc12", "1.59 µM"]
]}

Looking up "Cc1cc(-c2[nH]c3ccc(C4CCN(C(=O)C(=O)N5CCNCC5)CC4)cc3c2C(C)C)cc(C)n1" , I found its IC50 recorded as 0.0013 µM

Short answer for "CNC(=O)C(=O)N1CCC(c2ccc3[nH]c(-c4ccnc(C)c4)c(C(C)C)c3c2)CC1" : IC50 was 0.037 µM

Looking up Cc1cc(-c2[nH]c3ccc(C4CCN(CC(O)CO)CC4)cc3c2C(C)C)cc(C)n1 (centres unmarked) , I see its IC50 listed as 0.001 µM

Recorded IC50 (compound "Cc1cc(-c2[nH]c3ccc(C4CCN(C(CF)CF)CC4)cc3c2C(C)C)ccn1" ): 0.0367 µM

The reported value for "CCc1c(-c2ccncc2)[nH]c2ccc(C3CCN(C4CCN(CC)CC4)CC3)cc12" in terms of IC50 is 0.884 µM

"CC(C)c1c(-c2ccnc(N)c2)[nH]c2ccc(C3CCN(C(=O)C4CCNCC4)CC3)cc12" yielded IC50 of 0.415 µM

Short answer for "Cc1cc(-c2[nH]c3ccc(C4CCN(c5cccnc5)CC4)cc3c2C(C)C)ccn1" : IC50 was 0.0619 µM
